# ASSAY_TARGET: Metabotropic glutamate receptor 8 (Rattus norvegicus) (UniProt P70579)
# Sequence (P70579 whole entry, looked up): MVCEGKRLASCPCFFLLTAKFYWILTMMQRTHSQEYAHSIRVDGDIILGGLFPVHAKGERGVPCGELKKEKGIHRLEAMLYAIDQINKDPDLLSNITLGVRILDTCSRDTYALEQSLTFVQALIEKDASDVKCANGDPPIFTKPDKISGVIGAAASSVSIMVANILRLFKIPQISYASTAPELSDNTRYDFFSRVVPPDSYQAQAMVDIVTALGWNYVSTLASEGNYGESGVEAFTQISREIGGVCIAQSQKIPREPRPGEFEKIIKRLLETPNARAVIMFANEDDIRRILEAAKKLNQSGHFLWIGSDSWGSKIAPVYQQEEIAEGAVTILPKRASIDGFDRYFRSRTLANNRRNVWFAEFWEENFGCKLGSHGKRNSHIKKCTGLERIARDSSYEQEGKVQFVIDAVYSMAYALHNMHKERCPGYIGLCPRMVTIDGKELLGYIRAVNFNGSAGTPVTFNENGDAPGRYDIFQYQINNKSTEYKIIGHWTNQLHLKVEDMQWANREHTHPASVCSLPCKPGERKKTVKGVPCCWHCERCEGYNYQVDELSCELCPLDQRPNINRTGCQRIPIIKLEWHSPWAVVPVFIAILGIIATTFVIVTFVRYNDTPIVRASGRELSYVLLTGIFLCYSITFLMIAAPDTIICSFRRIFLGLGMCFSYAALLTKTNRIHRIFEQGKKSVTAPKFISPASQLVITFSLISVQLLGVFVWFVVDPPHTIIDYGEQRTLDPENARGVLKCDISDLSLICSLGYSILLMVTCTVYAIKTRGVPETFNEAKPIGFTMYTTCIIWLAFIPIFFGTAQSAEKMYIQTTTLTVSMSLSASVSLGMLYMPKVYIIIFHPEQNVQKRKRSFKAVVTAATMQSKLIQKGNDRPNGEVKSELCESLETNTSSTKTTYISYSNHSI
# EXPERIMENT_SUMMARY: mGluR8 Gi/Go-coupled signaling modulation – cell-based, rat, thallium flux, HTS, primary screen (AID 488969)
# MEASUREMENT_PARAMETERS: HEK293 rat mGluR8, GIRK thallium flux, FluoZin2; at 10 µM; stronger effect = higher value; submaximal glutamate (EC20) added with thallium
In all, about 110,000 compounds were measured (“z-score”: median about -0.1, highest 2% from about 2 on). Shown is part of a subset that was picked to be rich in the highest values.
I'd appreciate it if you could label each record using z-score and these ranges: range A (below -0.1), range B (-0.1 to below 0.3), range C (0.3 or more)

Lab note: which band did COc1cccc(N=C2SC(C(=O)Nc3ccccc3F)CC(=O)N2C)c1 (configuration not stated) land in?
range A

Lab note: which band did "CCc1ccc2oc(-c3cccc(N)c3)nc2c1" land in?
range A

Lab note: which band did "CCn1c(SCC(=O)N2CCCC2)nnc1-c1ccc(N)cc1" land in?
range B

---

# ASSAY_TARGET: Metabotropic glutamate receptor 8 (Rattus norvegicus)
# EXPERIMENT_SUMMARY: mGluR8 Gi/Go-coupled signaling modulation – cell-based, rat, thallium flux, HTS, primary screen (AID 488969)
# MEASUREMENT_PARAMETERS: HEK293 rat mGluR8, GIRK (G protein-gated inwardly rectifying potassium channel) thallium flux, FluoZin2; at 10 µM; stronger effect = higher value; submaximal glutamate (EC20) added with thallium
In all, about 110,000 compounds were measured (“z-score”: median about -0.1, highest 2% from about 2 on). Shown is part of a subset that was picked to be rich in the highest values.
Hi, to clarify the labels: YES covers z-score from -0.1 upward, NO covers anything below -0.1.

Consider the following illustrative entries.
COc1ccccc1C(=O)NNC(=O)c1ccc(F)cc1 ... YES
COCCN=c1scc(-c2cc(OC)ccc2OC)n1/N=C/c1c[nH]c2ccccc12 ... NO
Fc1ccc(C(c2nnnn2Cc2ccco2)N2CCN(C3CCCCC3)CC2)cc1 (configuration not stated) ... YES
CCn1c(SCc2ccc(Cl)cc2)nc2nc3c(cc2c1=O)CCCC3 ... YES
Cc1c(NC(=O)C(C)OC(=O)c2cc(Cl)nc(Cl)c2)c(=O)n(-c2ccccc2)n1C (configuration not stated) ... YES
Cc1nc2nc(-c3ccco3)[nH]n2c(=O)c1Cc1ccccc1 ... NO
COc1cc(-n2c(=O)c3ccccc3n(Cc3ccccc3)c2=O)cc(OC)c1OC ... YES
COc1ccc(Cn2nnnc2C(c2ccc(F)cc2)N2CCN(C3CCCC3)CC2)cc1 (configuration not stated) ... YES

Answer whether z-score of "COCCNC(=O)CN1C(=O)CSc2ncccc21" is greater than or equal to -0.1.
YES

Answer whether z-score of COCCNC(=O)c1cnn2c1NC(c1ccco1)CC2C(F)(F)F (configuration not stated) is greater than or equal to -0.1.
YES

Answer whether z-score of "COc1ccc(CNC(=O)CSCc2cccc(Cl)c2)cc1" is greater than or equal to -0.1.
NO

Answer whether z-score of "COC(=O)C1=C(C)N(C)C(=O)/C1=C\c1ccco1" is greater than or equal to -0.1.
NO

Answer whether z-score of "CC(=O)N1CCCc2cc(S(=O)(=O)N(C)Cc3ccccc3)ccc21" is greater than or equal to -0.1.
YES

Answer whether z-score of "Cc1c(/C=N/NC(N)=O)c2ccccn2c1C(=O)c1ccc(F)cc1" is greater than or equal to -0.1.
NO

Answer whether z-score of "CNC(=O)CN1C(=O)CSc2ncccc21" is greater than or equal to -0.1.
YES

Answer whether z-score of "COc1ccc(CNC(=O)CSCc2ccccc2Cl)cc1" is greater than or equal to -0.1.
YES

Answer whether z-score of "Cc1ccc(C)n1-c1ccc(N2CCOCC2)nc1" is greater than or equal to -0.1.
YES

Answer whether z-score of "CN1C(=O)c2ccc(NC(=O)c3ccc(N4CCCCC4)c([N+](=O)[O-])c3)cc2C1=O" is greater than or equal to -0.1.
NO

Answer whether z-score of COc1ccc(Cn2nnnc2C(c2ccc(C)cc2)N2CCN(C3CCCC3)CC2)cc1 (configuration not stated) is greater than or equal to -0.1.
YES

Answer whether z-score of "CCOc1ccccc1N1CCN(C(=O)C(F)(F)F)CC1" is greater than or equal to -0.1.
NO

Answer whether z-score of "COCCN=c1scc(-c2ccccc2)n1/N=C/c1c[nH]c2ccccc12" is greater than or equal to -0.1.
YES

Answer whether z-score of "COc1ccccc1C(=O)NCc1ccccc1" is greater than or equal to -0.1.
NO

Answer whether z-score of "N#Cc1cc2cc3c(cc2nc1N1CCOCC1)OCO3" is greater than or equal to -0.1.
NO

Answer whether z-score of Cc1ccc(Cl)cc1NC(=O)c1cnn2c1NC(c1ccco1)CC2C(F)(F)F (configuration not stated) is greater than or equal to -0.1.
NO

Answer whether z-score of "COc1ccc2cc3cc(C(=O)NC(C)C)oc3nc2c1" is greater than or equal to -0.1.
YES

Answer whether z-score of "C=CCn1c(=S)[nH]c2nc3c(cc2c1=O)CCCC3" is greater than or equal to -0.1.
YES

Answer whether z-score of "S=c1[nH]nc(Cc2cccc3ccccc23)n1-c1ccccc1" is greater than or equal to -0.1.
NO

Answer whether z-score of CC(C)C(c1nnnn1Cc1ccco1)N1CCN(C2CCCC2)CC1 (configuration not stated) is greater than or equal to -0.1.
NO

Answer whether z-score of "COc1ccc(CNC(=O)CCSCc2ccccc2Cl)c(OC)c1" is greater than or equal to -0.1.
NO

Answer whether z-score of "COC(=O)CN1C(=O)CSc2ncccc21" is greater than or equal to -0.1.
YES

Answer whether z-score of "CC(=O)Oc1c(C(=O)c2nnc(C)o2)c(=O)n(C)c2ccccc12" is greater than or equal to -0.1.
YES

Answer whether z-score of "CC(=O)Oc1c(C(=O)c2nnc(C)o2)c(=O)n(Cc2ccccc2)c2ccccc12" is greater than or equal to -0.1.
YES

# credit: PubChem BioAssay AID488969
